Target: D-3-phosphoglycerate dehydrogenase (Homo sapiens, UniProt O43175)
Sequence (O43175 whole entry): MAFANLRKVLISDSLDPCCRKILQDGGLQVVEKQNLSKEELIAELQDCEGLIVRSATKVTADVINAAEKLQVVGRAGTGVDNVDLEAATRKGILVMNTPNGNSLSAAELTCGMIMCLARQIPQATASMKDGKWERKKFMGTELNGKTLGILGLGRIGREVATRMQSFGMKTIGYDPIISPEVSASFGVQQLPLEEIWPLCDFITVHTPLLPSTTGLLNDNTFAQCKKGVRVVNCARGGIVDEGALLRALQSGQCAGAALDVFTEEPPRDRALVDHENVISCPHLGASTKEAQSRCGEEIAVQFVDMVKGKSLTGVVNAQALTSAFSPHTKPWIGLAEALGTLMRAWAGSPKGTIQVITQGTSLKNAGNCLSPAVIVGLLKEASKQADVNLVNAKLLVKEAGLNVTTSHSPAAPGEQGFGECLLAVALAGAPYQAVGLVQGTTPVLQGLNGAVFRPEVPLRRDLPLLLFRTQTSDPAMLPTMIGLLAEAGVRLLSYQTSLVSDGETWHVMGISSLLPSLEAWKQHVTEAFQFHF
Assay: Inhibition of N-terminal His6-tagged human PHGDH (4 to 315 residues) assessed as effect on NADH fluorescence incubated for 2 hrs using 3-PG substrate in presence of 19 uM NAD+ and PSAT1 by diaphorase based luminescence assay
pIC50: −log10 of the molar value.
Output Y for pIC50 not less than 6; output N otherwise.

For this compound, is measured pIC50 6 or higher? Cn1c(C(=O)N[C@@H](c2ccccc2)[C@@H](O)C(F)(F)F)cc2cc(Cl)ccc21 (relative stereo)
N

For this compound, is measured pIC50 6 or higher? C[C@@H](NC(=O)c1cc2c3ccccc3ccc2n1C)c1ccc(C(=O)O)cc1
Y

For this compound, is measured pIC50 6 or higher? Cn1c(C(=O)N[C@@H](c2ccccc2)[C@H](O)C(F)(F)F)cc2cc(Cl)ccc21 (relative stereo)
N

For this compound, is measured pIC50 6 or higher? CC(=O)NS(=O)(=O)c1ccc(C(C)NC(=O)c2cc(-c3ccccc3)nn2C)cc1 (racemic)
Y

For this compound, is measured pIC50 6 or higher? C[C@H](O)[C@@H](NC(=O)c1cc2cc(Cl)ccc2n1C)c1ccccc1
N

For this compound, is measured pIC50 6 or higher? CCc1cc(Cl)c2cc(C(=O)N[C@H](C)c3ccc(C(=O)O)cc3)n(C)c2c1
Y

For this compound, is measured pIC50 6 or higher? C[C@@H](NC(=O)c1cc2c(Cl)cc(C(F)F)cc2n1C)c1ccc(C(=O)O)cc1
Y

For this compound, is measured pIC50 6 or higher? C[C@@H](NC(=O)c1cc(-c2ccccc2)nn1C)c1ccc(N2CC[C@H](O)C2)cc1
N

====

Target: D-3-phosphoglycerate dehydrogenase (Homo sapiens, UniProt O43175)
Test: Inhibition of N-terminal His6-tagged human PHGDH (4 to 315 residues) assessed as effect on NADH fluorescence incubated for 2 hrs using 3-PG substrate in presence of 19 uM NAD+ and PSAT1 by diaphorase based luminescence assay
test-readout: pIC50
Here pIC50 is given on a logarithmic scale as minus log10 of the concentration in mol/L.

Checklist item: pIC50 tested on D-3-phosphoglycerate dehydrogenase (Homo sapiens, UniProt O43175), entry C[C@@H](NC(=O)c1cc(-c2ccccc2)nn1C)c1ccc(CO)cc1 , value?
5.22

Checklist item: pIC50 tested on D-3-phosphoglycerate dehydrogenase (Homo sapiens, UniProt O43175), entry Cn1c(C(=O)NC(CCO)c2ccccc2)cc2cc(Cl)ccc21 (racemic) , value?
4.00

Checklist item: pIC50 tested on D-3-phosphoglycerate dehydrogenase (Homo sapiens, UniProt O43175), entry CC(NC(=O)c1cc(-c2ccccc2)nn1C)c1ccc(C#N)cc1 (racemic) , value?
4.47

Checklist item: pIC50 tested on D-3-phosphoglycerate dehydrogenase (Homo sapiens, UniProt O43175), entry Cc1cc(Cl)c2cc(C(=O)N[C@H](C)c3ccc(S(=O)(=O)CC(=O)O)cc3)n(C)c2c1 , value?
8.52

Checklist item: pIC50 tested on D-3-phosphoglycerate dehydrogenase (Homo sapiens, UniProt O43175), entry CC(NC(=O)c1cc(-c2ccccc2)nn1C)c1ccc(S(N)(=O)=O)cc1 (racemic) , value?
5.37

Checklist item: pIC50 tested on D-3-phosphoglycerate dehydrogenase (Homo sapiens, UniProt O43175), entry Cc1cc2c(cc(C(=O)N[C@H](C)c3ccc(C(=O)O)cc3)n2C)c2ccccc12 , value?
7.55

Checklist item: pIC50 tested on D-3-phosphoglycerate dehydrogenase (Homo sapiens, UniProt O43175), entry C[C@@H](NC(=O)c1cc(-c2ccccc2)nn1C)c1ccc(N2C[C@@H](O)[C@@H](O)C2)cc1 , value?
5.28

Checklist item: pIC50 tested on D-3-phosphoglycerate dehydrogenase (Homo sapiens, UniProt O43175), entry C[C@@H](O)[C@@H](NC(=O)c1cc2cc(Cl)ccc2n1C)c1ccccc1 , value?
4.92

Checklist item: pIC50 tested on D-3-phosphoglycerate dehydrogenase (Homo sapiens, UniProt O43175), entry C[C@@H](NC(=O)c1cc(-c2ccccc2)nn1C)c1ccc(NS(C)(=O)=O)cc1 , value?
4.27

Checklist item: pIC50 tested on D-3-phosphoglycerate dehydrogenase (Homo sapiens, UniProt O43175), entry Cc1ccc([C@@H](C)NC(=O)c2cc(-c3ccccc3)nn2C)cc1 , value?
4.63

Checklist item: pIC50 tested on D-3-phosphoglycerate dehydrogenase (Homo sapiens, UniProt O43175), entry C[C@@H](NC(=O)c1cc(-c2ccccc2)nn1C)c1ccc(N2C(=O)CNC2=O)cc1 , value?
5.64

Checklist item: pIC50 tested on D-3-phosphoglycerate dehydrogenase (Homo sapiens, UniProt O43175), entry C[C@@H](NC(=O)c1cc(-c2ccccc2)nn1C)c1ccc(N2CCCC2=O)cc1 , value?
5.48

Checklist item: pIC50 tested on D-3-phosphoglycerate dehydrogenase (Homo sapiens, UniProt O43175), entry C[C@@H](NC(=O)c1cc2cc(Cl)c(Br)cc2n1C)c1ccc(C(=O)O)cc1 , value?
7.21

Checklist item: pIC50 tested on D-3-phosphoglycerate dehydrogenase (Homo sapiens, UniProt O43175), entry CC(NC(=O)c1cc(-c2ccccc2)nn1C)c1ccc(S(C)(=O)=O)cc1 (racemic) , value?
5.23

Checklist item: pIC50 tested on D-3-phosphoglycerate dehydrogenase (Homo sapiens, UniProt O43175), entry Cn1c(C(=O)NC(CN)c2ccccc2)cc2cc(Cl)ccc21 (racemic) , value?
4.40

Checklist item: pIC50 tested on D-3-phosphoglycerate dehydrogenase (Homo sapiens, UniProt O43175), entry Cc1cc(Cl)c2cc(C(=O)N[C@H](C)c3ccc(C(=O)O)cc3)n(C)c2c1 , value?
7.55

Checklist item: pIC50 tested on D-3-phosphoglycerate dehydrogenase (Homo sapiens, UniProt O43175), entry C[C@@H](NC(=O)c1cc(-c2ccccc2)nn1C)c1ccc([N+](=O)[O-])cc1 , value?
4.26

Checklist item: pIC50 tested on D-3-phosphoglycerate dehydrogenase (Homo sapiens, UniProt O43175), entry C[C@@H](NC(=O)c1cc(-c2ccccc2)nn1C)c1ccc(N2CCCC2)cc1 , value?
4.38

Checklist item: pIC50 tested on D-3-phosphoglycerate dehydrogenase (Homo sapiens, UniProt O43175), entry C[C@@H](NC(=O)c1cc(-c2ccccc2)nn1C)c1ccc(-c2cncnc2)cc1 , value?
4.67

Checklist item: pIC50 tested on D-3-phosphoglycerate dehydrogenase (Homo sapiens, UniProt O43175), entry C[C@@H](NC(=O)c1cc(-c2ccccc2)nn1C)c1ccc(C(N)=O)cc1 , value?
5.51

Checklist item: pIC50 tested on D-3-phosphoglycerate dehydrogenase (Homo sapiens, UniProt O43175), entry C[C@@H](NC(=O)c1cc2cc(Cl)cc(OC(F)(F)F)c2n1C)c1ccc(C(=O)O)cc1 , value?
6.08

Checklist item: pIC50 tested on D-3-phosphoglycerate dehydrogenase (Homo sapiens, UniProt O43175), entry C[C@@H](NC(=O)c1cc(-c2ccccc2)nn1C)c1ccccc1 , value?
4.66

Checklist item: pIC50 tested on D-3-phosphoglycerate dehydrogenase (Homo sapiens, UniProt O43175), entry C[C@@H](NC(=O)c1cc(-c2ccccc2)nn1C)c1ccc(S(=O)(=O)CC(=O)O)cc1 , value?
7.60

Checklist item: pIC50 tested on D-3-phosphoglycerate dehydrogenase (Homo sapiens, UniProt O43175), entry CC(NC(=O)c1cc(-c2ccccc2)nn1C)c1ccc(N(C)S(C)(=O)=O)cc1 (racemic) , value?
5.17

Checklist item: pIC50 tested on D-3-phosphoglycerate dehydrogenase (Homo sapiens, UniProt O43175), entry C[C@@H](NC(=O)c1cc2cc(Cl)ccc2n1C)c1ccc(C(=O)O)cc1 , value?
6.60

Checklist item: pIC50 tested on D-3-phosphoglycerate dehydrogenase (Homo sapiens, UniProt O43175), entry C[C@@H](NC(=O)c1cc(-c2ccccc2)nn1C)c1ccc(N2C(=O)CC[C@H]2C(=O)O)cc1 , value?
7.00

Checklist item: pIC50 tested on D-3-phosphoglycerate dehydrogenase (Homo sapiens, UniProt O43175), entry C[C@@H](NC(=O)c1cc(-c2ccccc2)nn1C)c1ccc(N2CCCS2(=O)=O)cc1 , value?
5.60

Checklist item: pIC50 tested on D-3-phosphoglycerate dehydrogenase (Homo sapiens, UniProt O43175), entry COc1cc(F)c(Cl)c2cc(C(=O)N[C@H](C)c3ccc(C(=O)O)cc3)n(C)c12 , value?
6.91

Checklist item: pIC50 tested on D-3-phosphoglycerate dehydrogenase (Homo sapiens, UniProt O43175), entry Cn1nc(-c2ccccc2)cc1C(=O)NCc1ccc(C(=O)O)cc1 , value?
5.24

Checklist item: pIC50 tested on D-3-phosphoglycerate dehydrogenase (Homo sapiens, UniProt O43175), entry Cc1cc2c(cc(C(=O)N[C@H](C)c3ccc(S(=O)(=O)CC(=O)O)cc3)n2C)c(Cl)c1Cl , value?
8.70

Checklist item: pIC50 tested on D-3-phosphoglycerate dehydrogenase (Homo sapiens, UniProt O43175), entry C[C@@H](NC(=O)c1cc2ccccc2n1C)c1ccc(C(=O)O)cc1 , value?
5.71

Checklist item: pIC50 tested on D-3-phosphoglycerate dehydrogenase (Homo sapiens, UniProt O43175), entry Cn1nc(-c2ccccc2)cc1C(=O)NC(C)(C)c1ccc(C(=O)O)cc1 , value?
5.89

Checklist item: pIC50 tested on D-3-phosphoglycerate dehydrogenase (Homo sapiens, UniProt O43175), entry Cc1cc2c(cc(C(=O)N[C@H](C)c3ccc(C(=O)O)cc3)n2C)c(Cl)c1Cl , value?
7.85
